Where do the numbers come from? From ChEMBL document CHEMBL3112400.

Target: Cannabinoid receptor 1 (Homo sapiens, UniProt P21554)
Sequence (P21554 whole entry): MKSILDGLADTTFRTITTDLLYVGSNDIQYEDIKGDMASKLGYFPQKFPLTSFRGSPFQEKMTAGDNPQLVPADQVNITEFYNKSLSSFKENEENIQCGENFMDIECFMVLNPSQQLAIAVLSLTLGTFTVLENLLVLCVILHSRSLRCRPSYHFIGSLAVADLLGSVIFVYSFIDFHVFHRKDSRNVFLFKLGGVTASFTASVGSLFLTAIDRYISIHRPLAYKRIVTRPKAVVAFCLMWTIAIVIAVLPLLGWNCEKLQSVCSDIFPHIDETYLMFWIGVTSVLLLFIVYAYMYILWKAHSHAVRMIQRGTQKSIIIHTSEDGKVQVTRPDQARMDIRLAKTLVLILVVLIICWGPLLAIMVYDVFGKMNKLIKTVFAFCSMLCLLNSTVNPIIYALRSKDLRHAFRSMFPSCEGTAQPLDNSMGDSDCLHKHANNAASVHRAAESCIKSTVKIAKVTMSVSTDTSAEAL
Assay: Displacement of [3H]-CP55940 from human CB1 receptor transfected in HEK-293EBNA cells after 90 mins by luminescence counting analysis
REPORTED_ENDPOINT: Ki

Look over these answered cases.
# COMPOUND_SMILES, Ki
data = [
    ("COc1ccc(COc2nn(CCN(C(C)C)C(C)C)c3ccc([N+](=O)[O-])cc23)cc1", "> 40 µM"),
    ("O=[N+]([O-])c1ccc2c(c1)c(OCc1ccc3ccccc3c1)nn2Cc1ccc2ccccc2c1", "> 10 µM"),
    ("COc1ccc(COc2nn(CCN(C(C)C)C(C)C)c3ccccc23)cc1", "> 40 µM"),
]

Shifting focus to the compound that follows.
stdin: Please report the recorded Ki for `O=[N+]([O-])c1ccc2c(c1)c(OCc1ccc3ccccc3c1)nn2Cc1ccccc1` .
stdout: > 10 µM
